- experimental-details: qHTS assay for small molecule antagonists of the retinoid-related orphan receptor gamma (ROR-gamma) signaling pathway - cell viability counter screen (AID 720652);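 further: compound exposure lasted 16 hr before ATP read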
- test-parameters: RORgamma reporter cell line viability counter screen; series mostly up to 92.2 µM
Results filed as inconclusive are left out. Active and inactive are the calls of the source. The call rests on the fitted dose curve; in most records, active means well fitted cell-killing curve with a large enough effect in the repeat runs; inconclusive means weak or mixed curves, or effect the other way; inactive means flat fitted curve, though single readings scatter.
Possible outcomes: active, inactive

| compound | class-name |
| --- | --- |
| Cc1cccc(O)c1C | inactive |
| CCC(C)Nc1ccc(NC(C)CC)cc1 (configuration not stated) | active |
| CCCCCCCC[N+](CCCCCCCC)(CCCCCCCC)CCCCCCCC | active |
| O=C1OC(O)C(C(Cl)Cl)=C1Cl (configuration not stated) | active |
| C=CC(=O)OCCOCCOC(=O)C=C | inactive |
| Nc1ccc2cc3ccccc3cc2c1 | inactive |
| Cc1cc(O)c(C(C)(C)C)cc1Sc1cc(C(C)(C)C)c(O)cc1C | active |
| CN(C)c1ccc(C2(c3ccc(N(C)C)cc3)OC(=O)c3cc(N(C)C)ccc32)cc1 | inactive |
| CN1[C@H]2CC(OC(=O)[C@H](CO)c3ccccc3)C[C@H]1[C@H]1O[C@H]12 (some centres not stated) | inactive |
| O=[N+]([O-])c1cc([N+](=O)[O-])c2ccc(S(=O)(=O)O)cc2c1O | inactive |
| C=C(C)c1ccccc1 | inactive |
| c1ccc2c(c1)ccc1cc3c(ccc4ccccc43)cc12 | inactive |

====

- Tested on: CP217
- experimental-details: qHTS profiling for inhibitors of Plasmodium falciparum proliferation (AID 504749); further: nearly all actives have a fitted effect of over 60% in size; further: potency means the concentration at half of the fitted maximal effect
- test-parameters: P. falciparum in erythrocytes, SYBR Green DNA, 72 h; series mostly up to 28.7 µM
Inconclusive results are not listed. Activity calls are given as the source filed them. The call rests on the fitted dose curve; in most records, active means well fitted inhibition curve with a large enough effect; inconclusive means small, poorly fitted or top-dose-only effect; inactive means flat fitted curve, though single readings scatter.

| compound | Potency |
| --- | --- |
| COC1CC2CCC(C)[C@](O)(O2)C(=O)C(=O)N2CCCCC2C(=O)OC(C(C)CC2CCC(O)C(OC)C2)CC(=O)C(C)/C=C(/C)C(O)C(OC)C(=O)C(C)CC(C)C=CC=C/C=C\1C (stereo not given in full) | 3.55 µM (active) |
| Cc1ccc(S(=O)(=O)NC(=O)NC(C)Cc2ccccc2)cc1 (stereo not given) | inactive |
| C=C1C(n2cnc3c(=O)[nH]c(N)nc32)C[C@H](O)[C@H]1CO (stereo not given in full) | inactive |
| CC[C@@H](C)C(N)C(=O)O (stereo not given in full) | inactive |
| C[S+](C)CC[C@H](N)C(=O)O | inactive |

====

activity change, negative = inhibition by entry:
- experimental-details: NFAT Signaling Pathway (AID 444);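 further: carbachol stimulus at about its EC50 of 1 µM final; on the % scale 0 is the no-effect control and ±100 the full control effect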
- test-parameters: Jurkat NFAT-bla M1, carbachol, beta-lactamase ratio, 5 h; at 17.2 µM (top of the series) unless noted
Records with an inconclusive call do not appear.
parameter-measured: activity change, negative = inhibition (%)

| molecule | parameter-measured | test-value |
| --- | --- | --- |
| CC1(C(=O)O)CCC(C(=O)NC2CCCCCC2)C1(C)C (stereo unspecified) | activity change, negative = inhibition | -7.92 |
| COc1ccc2oc(=O)c(-c3nc(C)cs3)cc2c1 | activity change, negative = inhibition | -8.83 |
| CN(C)c1oc(-c2cccs2)nc1C#N | activity change, negative = inhibition | 8.47 |
| CC1(C)Cc2c(c(-c3ccccc3)nc3[nH][nH]c(=O)c23)CO1 | activity change, negative = inhibition | -1.86 |
| Cc1ccc(C2C(C(=O)c3cc4ccccc4o3)=C(O)C(=O)N2CCCN(C)C)cc1 (stereo unspecified) | activity change, negative = inhibition | -2.86 |
| C/C=C/c1ccccc1OCc1ccc(C(=O)O)o1 | activity change, negative = inhibition | -2.78 |
| O=C(Nc1ccc2c(c1)OCO2)c1cncc(Br)c1 | activity change, negative = inhibition | -3.16 |
| CCOC(=O)C(Oc1ccc(=O)[nH]n1)C(C)=O (stereo unspecified) | activity change, negative = inhibition | 5.95 |
| Cc1ccc2cc(CNC(C)(C)C)c(=O)[nH]c2c1 | activity change, negative = inhibition | -5.21 |
| CC(=O)/C=C(\C)NCCNc1c(F)c(F)c(CO)c(F)c1F | activity change, negative = inhibition | 1.05 |
| CCCCCCCC(=O)OCC(=O)[C@@]1(O)CC[C@H]2[C@@H]3CCC4=CC(=O)CC[C@]4(C)[C@H]3[C@@H](O)C[C@@]21C | activity change, negative = inhibition | -28.6 |

====

- Tested on: CP247
- experimental-details: qHTS profiling for inhibitors of Plasmodium falciparum proliferation (AID 504749); further: nearly all actives have a fitted effect of over 60% in size
- test-parameters: P. falciparum in erythrocytes, SYBR Green DNA, 72 h; series mostly up to 28.7 µM
Results filed as inconclusive are left out. The source made the active and inactive calls. Calls follow the shape of the dose curve; as a rule, active = well fitted inhibition curve with a large enough effect; inconclusive = small, poorly fitted or top-dose-only effect; inactive = flat fitted curve, though single readings scatter.
Possible outcomes: y = active, n = inactive

| compound | class-name |
| --- | --- |
| C=C[C@H]1CN2CCC1C[C@H]2[C@H](O)c1ccnc2ccc(OC)cc12 (some centres undefined) | y |
| O=C(O)Cc1sc(-c2ccc(Cl)cc2)nc1-c1ccccc1 | n |
| Nc1nc(Cl)nc2c1ncn2[C@@H]1O[C@H](CO)[C@H](O)C1F (some centres undefined) | n |
| CC1OC(OC2C(O)CC(OC3C(O)CC(OC4CCC5(C)C(CCC6C5CCC5(C)C(C7=CC(=O)OC7)CCC65O)C4)OC3C)OC2C)CC(O)C1O (centres undefined) | n |
| OC[C@@H]1O[C@](CO)(O[C@H]2O[C@H](CO)[C@@H](O)[C@H](O)[C@H]2O)[C@H](O)[C@H]1O | n |
| C=C1C(n2cnc3c(=O)[nH]c(N)nc32)C[C@H](O)[C@H]1CO (some centres undefined) | n |
| C=C1[C@@H]2CC[C@H](C2)C1(C)C | n |
| OCC1O[C@H](Oc2ccc(O)cc2)C(O)C(O)C1O (some centres undefined) | n |
| CC[C@@]1(O)CC2CN(CCc3c([nH]c4ccccc34)[C@](C(=O)OC)(c3cc4c(cc3OC)N(C)C3[C@@](O)(C(=O)OC)C(OC(C)=O)[C@]5(CC)C=CCN6CC[C@@]43C65)C2)C1 (some centres undefined) | y |

====

- measurement-target: Glucocorticoid receptor (Homo sapiens) (UniProt P04150)
- Sequence (P04150 whole entry, looked up): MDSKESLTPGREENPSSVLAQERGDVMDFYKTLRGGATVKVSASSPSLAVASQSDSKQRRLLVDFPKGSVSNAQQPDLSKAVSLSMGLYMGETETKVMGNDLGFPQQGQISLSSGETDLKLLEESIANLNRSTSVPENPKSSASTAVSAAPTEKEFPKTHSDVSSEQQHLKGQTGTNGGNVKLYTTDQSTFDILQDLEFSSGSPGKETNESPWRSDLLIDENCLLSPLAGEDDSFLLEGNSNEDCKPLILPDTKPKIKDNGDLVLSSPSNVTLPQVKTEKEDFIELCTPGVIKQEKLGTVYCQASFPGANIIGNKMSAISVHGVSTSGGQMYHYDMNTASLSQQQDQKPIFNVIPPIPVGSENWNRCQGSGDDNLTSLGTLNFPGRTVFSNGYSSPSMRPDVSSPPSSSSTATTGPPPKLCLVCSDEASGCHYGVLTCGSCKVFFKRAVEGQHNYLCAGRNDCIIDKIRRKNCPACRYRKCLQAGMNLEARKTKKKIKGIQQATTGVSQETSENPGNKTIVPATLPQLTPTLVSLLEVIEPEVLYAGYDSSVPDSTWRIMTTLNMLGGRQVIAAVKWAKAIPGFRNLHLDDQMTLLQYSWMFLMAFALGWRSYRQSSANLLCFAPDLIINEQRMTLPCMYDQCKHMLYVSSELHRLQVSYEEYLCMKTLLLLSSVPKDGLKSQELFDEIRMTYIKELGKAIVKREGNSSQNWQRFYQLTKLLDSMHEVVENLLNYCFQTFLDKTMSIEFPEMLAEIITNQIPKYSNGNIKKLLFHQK
- experimental-details: GR-GFP Redistribution (AID 450); further: potency means the concentration at half of the fitted maximal effect
- test-parameters: U2OS GR-GFP nuclear translocation, laser cytometry, 2 h; series mostly up to 20.6 µM
Calls of active or inactive are those of the source.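 The calls were made as follows: active = compounds whose dose series gives a full or clear partial fitted curve of increased nuclear translocation; inconclusive = weak partial curve or effect only at the top dose; inactive = no dose-dependent translocation response.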
Potency by entry:

| compound | Potency |
| --- | --- |
| Cc1csc(NC(=O)CSc2nsc(SCC(=O)Nc3nc(C)cs3)c2C#N)n1 | > 20.6 µM (inactive) |
| Cc1sccc1C1C(C#N)=C(N)SC(N)=C1C#N | > 20.6 µM (inactive) |
| COCCNc1ncnc2c1cnn2-c1ccc(Cl)cc1 | > 20.6 µM (inactive) |
| Cn1c(NCc2ccccc2)nc2c1c(=O)n(Cc1ccccc1)c(=O)n2C | > 20.6 µM (inactive) |
| Cn1c(N2CCN(c3ccccn3)CC2)nc2c1c(=O)n(Cc1ccc(Cl)cc1)c(=O)n2C | > 20.6 µM (inactive) |
| O=C(O)C1CCCCN1S(=O)(=O)c1cccc2nsnc12 (stereo not given) | > 20.6 µM (inactive) |
| CCCOc1cccc(C2C(C(=O)c3ccc(C)o3)=C(O)C(=O)N2CCCN(C)C)c1 (stereo not given) | > 20.6 µM (inactive) |
| COc1ccccc1C(=O)NC(=Nc1nc2ccccc2o1)NC(=O)c1ccccc1OC | > 20.6 µM (inactive) |
| C=C1CC[C@@H](O)C/C1=C/C=C1\CCC[C@]2(C)[C@@H]1CC[C@H]2[C@@H](C)/C=C\[C@@H](C)C(C)C | > 46 µM (inactive) |
| COc1cc(Cn2ccnc2)c(OC)cc1Cn1ccnc1 | > 20.6 µM (inactive) |

====

- experimental-details: AP1 Signaling Pathway (AID 357);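 further: ME-180 reporter cells stimulated with EGF at its EC50 level; on the % scale 0 is the no-effect control and ±100 the full control effect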
- test-parameters: ME-180 (cervical carcinoma) AP-1-bla reporter, EGF-induced, beta-lactamase ratio, 5 h; at 17.2 µM (top of the series) unless noted
Inconclusive results are not listed. The source made the active and inactive calls. Calls come from the whole dose curve; as a rule, active = well fitted curve in either direction with a large enough effect (not every such curve was filed as active); inconclusive = small, poorly fitted or top-dose-only effect, or another doubt; inactive = flat fitted curve, though single readings scatter.
activity change, negative = inhibition by entry:

| compound | activity change, negative = inhibition |
| --- | --- |
| CCOC(=O)c1c(C)n(C)c2ccc(OC)c(NC(=O)CCN3CCSCC3)c12 | 2.45% (inactive) |
| O=C(Cc1cscn1)c1ccc(O)cc1O | 4.71% (inactive) |
| CC1(C2(O)CC(c3ccccc3)ON2)CCCCC1 (stereo unspecified) | 11.4% (inactive) |
| N#CCSc1nc2c(cc1C#N)CCCCCC2 | -14.6% (inactive) |
| CC(=O)N[C@H](Cc1c[nH]c2ccccc12)C(=O)O | 3.17% [at 7.69 µM] (inactive) |
| CCCCN(C(=O)CCC(=O)O)C1CC(=O)N(c2ccc(OCCC)cc2)C1=O (stereo unspecified) | 0.952% (inactive) |
